What GI50 was measured for each of the following?
Test system: SF-268 CNS
assay_notes: NCI tumour cell line growth inhibition, 48 h

[Q] Give GI50 (SF-268 CNS) of the following molecule: CC(=O)Oc1cc2cnc3c4cc(OC(C)=O)c(OC(C)=O)cc4ccc3c2cc1OC(C)=O
[A] 1220 nM

[Q] Another molecule to look at: COc1ccc(/C=C/C(=O)c2cc3c(N)c(C(=O)Nc4ccc(OC)cc4)sc3nc2C)cc1
[A] 2020 nM

[Q] Another molecule to look at: CCCCCC[C@H]1C(=O)O[C@H](C)[C@H](NC(=O)c2cccc(NC=O)c2OC)C(=O)O[C@@H](C)[C@@H]1OC(=O)CCC (tested in a mixture with another compound)
[A] 13700 nM

[Q] Another molecule to look at: O=C1Nc2ccc3c(c2/C1=C\c1cc2c(cc1Br)OCO2)OCO3
[A] 524 nM

[Q] Another molecule to look at: COc1cc(-c2nn(-c3cccc(NC(=O)CCN4CCN(c5ccccc5)CC4)c3)cc2-c2ccncc2)ccc1Cl
[A] 3560 nM

[Q] Another molecule to look at: Cc1cc(NN=C(c2ccc(O)cc2)c2ccc(O)cc2)c([N+](=O)[O-])cc1[N+](=O)[O-]
[A] 5340 nM

====

What TGI was measured for each of the following?
System: OVCAR-4 ovarian
assay_notes: NCI tumour cell line growth inhibition, 48 h

[Q] Any idea what TGI was measured for CCOc1ccc(NC(=O)C(=O)Nn2c(N)nnc2N)cc1 ?
[A] > 100 µM

[Q] Another compound to look at: CN(N=O)c1nc2c(C(N)=O)ncn2s1
[A] > 100 µM

[Q] Another compound to look at: Cc1ccc(-c2cc(-c3ccccc3)c(C#N)c(=O)[nH]2)cc1
[A] > 100 µM

[Q] Another compound to look at: CCOP(=O)(O)C(Nc1ccc(N=Nc2ccccc2)cc1)c1cccc(C(Nc2ccc(N=Nc3ccccc3)cc2)P(=O)(O)OCC)c1 (centres undefined)
[A] > 100 µM

[Q] Another compound to look at: CCCCCCCCCCCCOCC1(COCCCCCCCCCCCC)COC(c2ccc(N)cc2)OC1
[A] > 100 µM

[Q] Another compound to look at: C[C@@H]1CC[C@H]2[C@H](C)C(OC3O[C@@H]4O[C@@]5(C)CC[C@H]6[C@H](C)CC[C@@H]([C@@H]3C)[C@@]46O5)O[C@@H]3O[C@@]4(C)CC[C@@H]1[C@]32O4 (some centres undefined)
[A] > 100 µM

[Q] Another compound to look at: COc1ccc(C2Cc3cc(OC)c(OC)c(OC)c3C2)cc1 (centres undefined)
[A] > 100 µM

[Q] Another compound to look at: COc1cccc(-c2nc3sccn3c2-c2ccnc(NCCCNS(=O)(=O)c3ccccc3)c2)c1
[A] > 100 µM

[Q] Another compound to look at: CC(C)CC(N)C(=O)NC(C(=O)NC(CCCNC(=N)N)C(=O)NC(CS)C(=O)NC1CSCC(C(=O)NC(Cc2ccccc2)C(=O)NC(C(=O)NC(CCCNC(=N)N)C(=O)O)C(C)C)NC(=O)C2CCCN2C(=O)C(CCCCN)NC(=O)C2CCCN2C(=O)C2CCCN2C(=O)C(Cc2ccc(O)cc2)NC(=O)C(CO)NC(=O)C(CCCCN)NC(=O)C(C(C)O)NC(=O)C(Cc2c[nH]c3ccccc23)NC1=O)C(C)C (centres undefined)
[A] > 25 µM

[Q] Another compound to look at: COc1ccc2c(c1)C(=O)c1c-2c(OCCN(C)C)nc2cc(OC)c(OC)cc12
[A] > 100 µM

[Q] Another compound to look at: COc1ccc(N2C(=O)C(=O)C3(CCCCC3)C2=O)c2ccccc12
[A] > 10 µM

[Q] Another compound to look at: CCOC(=O)C(=CNc1ccc(F)c(F)c1)C(=O)OCC
[A] > 100 µM

[Q] Another compound to look at: CC(C)[C@H]1NC(=O)[C@H]2N=C(S[C@H]2C)[C@@H]2CCCN2C(=O)[C@H](Cc2ccccc2)NC(=O)[C@@H]2CSC(=N2)[C@@H](Cc2ccccc2)NC(=O)[C@@H]2CSC1=N2
[A] > 50 µM

[Q] Another compound to look at: COc1cc(OC)c2c(=O)c3cccc([N+](=O)[O-])c3n(C)c2c1
[A] > 100 µM

====

System: SF-268 CNS
assay_notes: NCI tumour cell line growth inhibition, 48 h
What TGI was measured for each of the following?

[Q] Any idea what TGI was measured for O=C1NC2(CCNCC2)Oc2ccccc21 ?
[A] > 100 µM

[Q] Another molecule to look at: CCCCCCCCCCCCCCCc1nc(=S)[nH][nH]1
[A] > 100 µM

[Q] Another molecule to look at: Nc1ccccc1C(=O)N=Nc1c(O)[nH]c2ccccc12
[A] > 100 µM

====

Tested on: SNB-19 CNS
assay_notes: NCI tumour cell line growth inhibition, 48 h
measurement_kind: TGI

[Q] Any idea what TGI was measured for Cc1ccc(C2CC(c3ccc(Nc4ccnc5cc(Cl)ccc45)cc3)=NN2C=O)cc1 (stereo unspecified) ?
[A] > 100 µM

[Q] Another molecule to look at: N#CCc1cccc(CC#N)c1Br
[A] > 100 µM

[Q] Another molecule to look at: Nc1nc(SCC(=O)c2ccc(Br)cc2)c2[nH]cnc2n1
[A] > 100 µM

[Q] Another molecule to look at: CCn1c(-c2nonc2N)nc2cnc(Oc3cccc(NC(=O)c4ccc(N(C)C)cc4)c3)cc21
[A] > 25 µM

[Q] Another molecule to look at: COC(=O)c1c(O)ccc2c1c1c(n2Cc2cc(OC)cc(OC)c2)C(=O)c2ccccc2C1=O
[A] > 100 µM

[Q] Another molecule to look at: CC(=O)[C@H]1[C@H](O)C[C@@]2(C)[C@@H]3CCc4cc(O)c(OC5OC(CO)C(O)C(O)C5O)cc4C3(C)C(=O)C[C@]12C (stereo partly specified)
[A] > 100 µM

[Q] Another molecule to look at: COc1ccc(/C=C/C(=O)c2cc3c(N)c(C(=O)Nc4ccc(OC)cc4)sc3nc2C)cc1
[A] > 41.3 µM

[Q] Another molecule to look at: O=C(NCCNCCNC(=O)c1cc(-c2ccccc2)nc2ccccc12)c1cc(-c2ccccc2)nc2ccccc12
[A] 24.3 µM

[Q] Another molecule to look at: C[C@@H]1CC[C@H]2[C@H](C)C(OC3O[C@@H]4O[C@@]5(C)CC[C@H]6[C@H](C)CC[C@@H]([C@@H]3C)[C@@]46O5)O[C@@H]3O[C@@]4(C)CC[C@@H]1[C@]32O4 (stereo partly specified)
[A] > 100 µM

[Q] Another molecule to look at: CS(=O)(=O)Nc1cc(-c2ccc3ncnc(Nc4cccc(Cl)c4)c3c2)cnc1Cl
[A] 5.05 µM

[Q] Another molecule to look at: O=C(Cn1c2ccc(Br)cc2c2nc3ccccc3nc21)Nc1ccccc1
[A] > 100 µM

[Q] Another molecule to look at: CCSC1=N/C(=C\c2ccco2)C(=O)N1
[A] > 100 µM

[Q] Another molecule to look at: COc1cc2cc(Oc3cccc(NC(=O)Nc4cc(C(F)(F)F)cc(C(F)(F)F)c4)c3)c(C)nc2cc1OC
[A] 2.16 µM

[Q] Another molecule to look at: COc1ccc(C2Cc3cc(OC)c(OC)c(OC)c3C2)cc1 (stereo unspecified)
[A] > 100 µM

[Q] Another molecule to look at: CCN(c1ccccc1)[C@H]1C(=O)N(c2ccc([N+](=O)[O-])cc2)[C@H]1c1ccc(OC)cc1
[A] > 100 µM

[Q] Another molecule to look at: COc1cc(-c2nn(-c3cccc(NC(=O)CCN4CCN(c5ccccc5)CC4)c3)cc2-c2ccncc2)ccc1Cl
[A] > 100 µM

[Q] Another molecule to look at: CC1OC(OC2C(O)C(O)C(O)C(O)C2O)C(N)CC1N=C(N)C(=O)O (stereo unspecified)
[A] > 100 µM

[Q] Another molecule to look at: O=C1CSC(c2ccccc2O)N1c1ccc(-n2c(-c3ccccc3)nc3ccccc3c2=O)cc1 (stereo unspecified)
[A] > 100 µM

[Q] Another molecule to look at: O=C1NCN(c2ccccc2)C12CCN(CC1COc3ccccc3O1)CC2 (stereo unspecified)
[A] 85.3 µM

[Q] Another molecule to look at: COc1cc2ncnc(Oc3cccc(NC(=O)Nc4cc(C(C)(C)C(F)(F)F)on4)c3)c2cc1OC
[A] > 100 µM

[Q] Another molecule to look at: CCCc1cc(OC(=O)c2c(O)cc(OC)cc2CCC)cc(O)c1C(=O)O
[A] > 100 µM

[Q] Another molecule to look at: Cc1cc(Cl)ccc1NC(=O)C1C(=O)N(c2ccc(Cl)cc2C)C(=O)/C1=N\NC(N)=S (stereo unspecified)
[A] > 100 µM

[Q] Another molecule to look at: COc1ccc(C2NC(=S)NC3=C2CCOc2c3ccc3ccccc23)cc1 (stereo unspecified)
[A] > 100 µM

[Q] Another molecule to look at: O=[N+]([O-])/C(Cl)=C(/C(Cl)=C(Cl)Cl)N1CCOCC1
[A] 38.3 µM

[Q] Another molecule to look at: N#Cc1cc(S(=O)(=O)Nc2nc3cc(Cl)ccc3o2)c(SCc2ccccc2)cc1Cl
[A] 26.5 µM

[Q] Another molecule to look at: O=C(O)c1ccccc1NCn1c(=S)sc2ccccc21
[A] > 100 µM
